Overview of reported GI50 across a group of molecules:
Test system: SF-539
testDetails: NCI tumour cell line growth inhibition, 48 h
Calls of active or inactive are those of the source. Cut-off read from the data, not from the text of the source: active = GI50 up to about 1.1 µM and inactive = higher.

molecule="CC(OP(=O)(O)O)C(N)C(=O)O (centres undefined)" subjectoftest=SF-539 recordedmeasurement="> 100 µM (inactive)"
molecule=CCOC(=O)/C=C(/CN1C(=O)c2ccccc2C1=O)c1ccccc1 subjectoftest=SF-539 recordedmeasurement="> 100 µM (inactive)"
molecule="CCCNCC(O)CNc1ccc(NCC(O)CNCCC)c2c1C(=O)c1ccccc1C2=O (centres undefined)" subjectoftest=SF-539 recordedmeasurement="1.71 µM (inactive)"
molecule=COC(=O)C1(C(=O)OC)Cc2ccc(C)cc2C2=C1C(=O)c1ccccc1C2=O subjectoftest=SF-539 recordedmeasurement="23.9 µM (inactive)"
molecule=COCO[C@@H]1C[C@H]2C(=O)N(COC)c3ccccc3C(=O)N2C1 subjectoftest=SF-539 recordedmeasurement="> 100 µM (inactive)"

Q: Please report the recorded GI50 for CCOC(=O)c1s/c(=N\Nc2nc3ccccc3cc2C2OCCO2)n(Cc2ccccc2)c1C .
Result: > 100 µM (inactive)

Q: Name the recorded GI50 for O=C1C2=Cc3ccccc3OC2(O)Oc2cc(O)ccc21 (centres undefined) .
Result: > 100 µM (inactive)

Q: Item under review: NC1CCCCC1.O=P(O)(O)C(CSc1ccccc1)P(=O)(O)O . Reported GI50?
Result: > 100 µM (inactive)
